The reported numbers originate from patent US4965280A.

# Test system: WATER PLAINTAIN
# Assay details: Test C rice paddy
# Type: in vivo, Alisma trivale
# Condition label: 504 h; 1000 G/HA, 21 days; read-out: plant response
# Text: Sixteen cm diameter Airlite plastic pots were partially filled with Tama slit loam soil and the soil saturated with water. Japonica and Indica rice seedlings a the 2.0 to 2.5 leaf stage were transplanted into 1/3 of the pots. Into another third of the pots were transplanted seedling or sprouted tubers of water plantain (Alisma trivale), Scripus (Scirpus paludosus), Cyperus (Cyperus esculentus), and arrowhead (Sagittaria spp.). […]
Reported values of pest or weed control at 1000 g/ha for individual entries
Measurement name: pest or weed control at 1000 g/ha (%)

{"Compound": "C=C(c1ccc(F)cc1)C(O)(Cn1ncnc1S)c1ccc(F)cc1F (stereo not drawn) [Example 1304]", "Measurement units": "%", "Result number": 65}
{"Compound": "C=C(c1ccccc1Cl)C(O)(Cn1cncn1)c1ccc(Cl)cc1Cl (stereo not drawn) [Example 33]", "Measurement units": "%", "Result number": 0}
{"Compound": "C=C(c1cccc(F)c1)C(O)(Cn1cncn1)c1ccc(F)cc1F (stereo not drawn) [Example 18]", "Measurement units": "%", "Result number": 40}

###

# Test system: Plasmorpara viticola
# Assay details: Example I grape downy mildew
# Format: in vivo
# Condition label: read-out: disease control rating, Ex. I

{"Molecule": "C=C(c1ccccc1Cl)C(O)(Cn1cncn1)c1ccc(F)cc1F (centres unmarked)", "Test target": "Plasmorpara viticola", "Measurement units": "%", "pest or weed control at 100 ppm": 26}
{"Molecule": "C=C(c1ccccc1Cl)C(O)(Cn1cncn1)c1ccc(Cl)cc1 (centres unmarked)", "Test target": "Plasmorpara viticola", "Measurement units": "%", "pest or weed control at 100 ppm": 0}
{"Molecule": "C=C(c1ccccc1)C(O)(Cn1cncn1)c1ccc(Cl)cc1Cl (centres unmarked)", "Test target": "Plasmorpara viticola", "Measurement units": "%", "pest or weed control at 100 ppm": 46}
{"Molecule": "C=C(c1ccc(Cl)cc1)C(O)(Cn1cncn1)c1ccc(F)cc1F (centres unmarked)", "Test target": "Plasmorpara viticola", "Measurement units": "%", "pest or weed control at 100 ppm": 6}
{"Molecule": "C=C(CN(C)C)C(O)(Cn1cncn1)c1ccc(-c2ccccc2)cc1 (centres unmarked)", "Test target": "Plasmorpara viticola", "Measurement units": "%", "pest or weed control at 100 ppm": 0}
{"Molecule": "C=C(CO)C(O)(Cn1cncn1)c1ccc(Cl)cc1 (centres unmarked)", "Test target": "Plasmorpara viticola", "Measurement units": "%", "pest or weed control at 100 ppm": 24}
{"Molecule": "C=C(c1ccc([S+](C)[O-])cc1)C(O)(Cn1cncn1)c1ccc(F)cc1 (centres unmarked)", "Test target": "Plasmorpara viticola", "Measurement units": "%", "pest or weed control at 100 ppm": 0}
{"Molecule": "C=CCOC(Cn1cncn1)(C(=C)c1ccc(F)cc1)c1ccc(F)cc1 (centres unmarked)", "Test target": "Plasmorpara viticola", "Measurement units": "%", "pest or weed control at 100 ppm": 0}
{"Molecule": "C=C(c1ccccc1)C(O)(Cn1ncnc1SCCCC)c1ccc(F)cc1 (centres unmarked)", "Test target": "Plasmorpara viticola", "Measurement units": "%", "pest or weed control at 100 ppm": 74}
{"Molecule": "C=C(c1ccc(C(F)(F)F)cc1)C(O)(Cn1cncn1)c1ccc(Cl)cc1 (centres unmarked)", "Test target": "Plasmorpara viticola", "Measurement units": "%", "pest or weed control at 100 ppm": 1}
{"Molecule": "C=C(CN(C)C)C(O)(Cn1cncn1)c1ccc(Cl)cc1Cl (centres unmarked)", "Test target": "Plasmorpara viticola", "Measurement units": "%", "pest or weed control at 100 ppm": 0}
{"Molecule": "C=C(c1ccccc1)C(O)(Cn1cncn1)c1ccccc1F (centres unmarked)", "Test target": "Plasmorpara viticola", "Measurement units": "%", "pest or weed control at 100 ppm": 79}
{"Molecule": "C=C(c1ccc(Cl)cc1)C(O)(Cn1cncn1)c1ccccc1Cl (centres unmarked)", "Test target": "Plasmorpara viticola", "Measurement units": "%", "pest or weed control at 100 ppm": 84}
{"Molecule": "C=C(c1ccccc1)C(O)(Cn1cncn1)c1ccccc1Cl (centres unmarked)", "Test target": "Plasmorpara viticola", "Measurement units": "%", "pest or weed control at 100 ppm": 25}
{"Molecule": "C=C(c1ccc(F)cc1)C(O)(Cn1cncn1)c1ccc(F)cc1 (centres unmarked) [Example 1]", "Test target": "Plasmorpara viticola", "Measurement units": "%", "pest or weed control at 100 ppm": 12}
{"Molecule": "C=C(c1ccc(F)cc1)C(Cn1cncn1)(OC)c1ccc(F)cc1 (centres unmarked)", "Test target": "Plasmorpara viticola", "Measurement units": "%", "pest or weed control at 100 ppm": 0}
{"Molecule": "C=C(c1ccc(F)cc1)C(Cn1cncn1)(OC(=O)NC)c1ccc(F)cc1 (centres unmarked)", "Test target": "Plasmorpara viticola", "Measurement units": "%", "pest or weed control at 100 ppm": 0}
{"Molecule": "C=C(c1cccc(F)c1)C(O)(Cn1cncn1)c1ccc(F)cc1 (centres unmarked)", "Test target": "Plasmorpara viticola", "Measurement units": "%", "pest or weed control at 100 ppm": 0}
{"Molecule": "C=C(c1ccc(Cl)cc1)C(O)(Cn1cncn1)c1ccc(Cl)cc1Cl (centres unmarked)", "Test target": "Plasmorpara viticola", "Measurement units": "%", "pest or weed control at 100 ppm": 86}
{"Molecule": "C=C(c1ccccc1)C(O)(Cn1cncn1)c1ccc(F)cc1F (centres unmarked)", "Test target": "Plasmorpara viticola", "Measurement units": "%", "pest or weed control at 100 ppm": 0}
{"Molecule": "C=C(c1cccc(F)c1)C(O)(Cn1cncn1)c1ccc(Cl)cc1 (centres unmarked)", "Test target": "Plasmorpara viticola", "Measurement units": "%", "pest or weed control at 100 ppm": 42}
{"Molecule": "C=C(c1ccccc1)C(O)(Cn1cncn1)c1cc(Cl)cc(Cl)c1 (centres unmarked)", "Test target": "Plasmorpara viticola", "Measurement units": "%", "pest or weed control at 100 ppm": 0}
{"Molecule": "C=C(c1ccc(F)cc1)C(O)(Cn1cncn1)c1ccc(F)cc1F (centres unmarked)", "Test target": "Plasmorpara viticola", "Measurement units": "%", "pest or weed control at 100 ppm": 81}
{"Molecule": "C=C(c1ccccc1F)C(O)(Cn1cncn1)c1ccc(F)cc1 (centres unmarked)", "Test target": "Plasmorpara viticola", "Measurement units": "%", "pest or weed control at 100 ppm": 0}
{"Molecule": "C=C(c1ccc(F)cc1)C(O)(Cn1ncnc1S)c1ccc(F)cc1F (centres unmarked)", "Test target": "Plasmorpara viticola", "Measurement units": "%", "pest or weed control at 100 ppm": 18}
{"Molecule": "C=C(c1ccc(F)cc1)C(O)(Cn1cncn1)c1ccc(-c2ccccc2)cc1 (centres unmarked)", "Test target": "Plasmorpara viticola", "Measurement units": "%", "pest or weed control at 100 ppm": 37}
{"Molecule": "C=C(CN(C)C)C(O)(Cn1cncn1)c1ccc(F)cc1 (centres unmarked)", "Test target": "Plasmorpara viticola", "Measurement units": "%", "pest or weed control at 100 ppm": 0}
{"Molecule": "C=C(c1ccc(SC)cc1)C(O)(Cn1cncn1)c1ccc(F)cc1 (centres unmarked)", "Test target": "Plasmorpara viticola", "Measurement units": "%", "pest or weed control at 100 ppm": 0}
{"Molecule": "C=C(c1ccc(F)cc1)C(O)(CC)Cn1cncn1 (centres unmarked)", "Test target": "Plasmorpara viticola", "Measurement units": "%", "pest or weed control at 100 ppm": 31}
{"Molecule": "C=C(c1ccccc1C(F)(F)F)C(O)(Cn1cncn1)c1ccc(F)cc1 (centres unmarked)", "Test target": "Plasmorpara viticola", "Measurement units": "%", "pest or weed control at 100 ppm": 0}
{"Molecule": "C=C(c1ccc(F)cc1)C(O)(Cn1cncn1)c1ccccc1Cl (centres unmarked)", "Test target": "Plasmorpara viticola", "Measurement units": "%", "pest or weed control at 100 ppm": 99}
{"Molecule": "C=C(c1ccc(F)cc1)C(O)(Cn1cncn1)c1cccc(C(F)(F)F)c1 (centres unmarked)", "Test target": "Plasmorpara viticola", "Measurement units": "%", "pest or weed control at 100 ppm": 85}
{"Molecule": "C=C(c1ccccc1)C(O)(Cn1ncnc1S)c1ccc(F)cc1 (centres unmarked)", "Test target": "Plasmorpara viticola", "Measurement units": "%", "pest or weed control at 100 ppm": 16}
{"Molecule": "N#CCS(=O)(=O)c1ncnn1CC(O)(c1ccccc1F)C1(c2ccc(F)cc2)CO1 (centres unmarked)", "Test target": "Plasmorpara viticola", "Measurement units": "%", "pest or weed control at 100 ppm": 89}
{"Molecule": "C=C(CO)C(O)(Cn1cncn1)c1ccc(F)cc1 (centres unmarked)", "Test target": "Plasmorpara viticola", "Measurement units": "%", "pest or weed control at 100 ppm": 51}
{"Molecule": "C=C(CO)C(O)(Cn1cncn1)c1ccc(Cl)cc1Cl (centres unmarked)", "Test target": "Plasmorpara viticola", "Measurement units": "%", "pest or weed control at 100 ppm": 51}
{"Molecule": "C=C(c1ccc(F)cc1)C(O)(Cn1ncnc1I)c1ccc(F)cc1F (centres unmarked)", "Test target": "Plasmorpara viticola", "Measurement units": "%", "pest or weed control at 100 ppm": 78}
{"Molecule": "C=C(c1ccc(F)cc1)C(Cn1cncn1)(OC(C)=O)c1ccc(F)cc1 (centres unmarked)", "Test target": "Plasmorpara viticola", "Measurement units": "%", "pest or weed control at 100 ppm": 9}
